Measured Cocklebur plant response rating of individual entries
# System: cocklebur
# Assay: Test B pre/postemergence cocklebur
# Assay type: in vivo, Xanthium strumarium
# Experimental Conditions: Postemergence, Rate 125 g/ha; scale of 0 to 10 where 0 is no effect and 10 is complete control
Measurement Label: Cocklebur plant response rating

INSERT INTO assay_data (compound, endpoint_result) VALUES
  ('Cc1nn(C)c(C)c1-n1c(=O)on(C(=O)N(c2ccccc2)C(C)C)c1=O', 1),
  ('C#CCCn1c(=O)on(C(=O)N(c2ccc(F)cc2F)C(C)C)c1=O', 0),
  ('CCN(CC)C(=O)n1oc(=O)n(-c2cccc3c2CCCC3)c1=O', 1),
  ('CCOC(CC)n1c(=O)on(C(=O)N(c2ccc(Cl)cc2)C(C)C)c1=O (centres unmarked)', 0),
  ('CC(C)N(C(=O)n1oc(=O)n(C(CCl)CCl)c1=O)c1ccc(F)cc1', 1),
  ('CCCn1c(=O)on(C(=O)N(c2ccc(Cl)cc2)C(C)C)c1=O', 0),
  ('CCC(C)n1c(=O)on(C(=O)N(c2ccc(F)cc2)C(C)C)c1=O (centres unmarked)', 2),
  ('CCOP(=O)(OCC)C(C)n1c(=O)on(C(=O)N(c2ccc(Cl)cc2)C(C)C)c1=O (centres unmarked)', 0);

###

Measured Giant foxtail plant response rating of individual entries
# Tested on: giant foxtail
# Assay: Test B pre/postemergence giant foxtail
# Type: in vivo, Setaria faberii
# Experimental Conditions: Preemergence, Rate 125 g/ha; scale 0 to 10, 0 is no effect, 10 is complete control
Measurement Label: Giant foxtail plant response rating

INSERT INTO results (smiles_record, measurement_label, endpoint_result) VALUES
  ('CC(C)N(C(=O)n1oc(=O)n(CCc2ccccc2)c1=O)c1ccc(F)cc1F', 'Giant foxtail plant response rating', 10),
  ('CC(C)N(C(=O)n1oc(=O)n(CC2CC2)c1=O)c1ccccc1', 'Giant foxtail plant response rating', 10),
  ('CC(C)C(=O)Cn1c(=O)on(C(=O)N(c2ccc(Cl)cc2)C(C)C)c1=O', 'Giant foxtail plant response rating', 9),
  ('CCC(=O)Cn1c(=O)on(C(=O)N(c2ccc(Cl)cc2)C(C)C)c1=O', 'Giant foxtail plant response rating', 10),
  ('CC(C)=CCn1c(=O)on(C(=O)N(c2ccc(Cl)cc2)C(C)C)c1=O', 'Giant foxtail plant response rating', 10),
  ('CCOC(=O)C=C(Cn1c(=O)on(C(=O)N(c2ccccc2)C(C)C)c1=O)OCC', 'Giant foxtail plant response rating', 9),
  ('CCOC(=O)C=C(Cn1c(=O)on(C(=O)N(c2ccc(F)cc2F)C(C)C)c1=O)OCC', 'Giant foxtail plant response rating', 10);

###

Measured Wild oats plant response rating of individual entries
# Tested on: wild oat
# Assay: Test B pre/postemergence wild oat
# Type: in vivo, Avena fatua
# Experimental Conditions: Preemergence, Rate 250 g/ha; scale 0 to 10, 0 is no effect, 10 is complete control
Measurement Label: Wild oats plant response rating

INSERT INTO measurements (compound, endpoint_result) VALUES
  ('Cc1nc(C)c(Cn2c(=O)on(C(=O)N(c3ccc(Cl)cc3)C(C)C)c2=O)s1', 3),
  ('COC(CCl)n1c(=O)on(C(=O)N(c2ccc(Cl)cc2)C(C)C)c1=O (centres unmarked)', 3),
  ('CCOC(=O)CC(C(=O)OCC)n1c(=O)on(C(=O)N(c2ccc(F)cc2F)C(C)C)c1=O (centres unmarked)', 2),
  ('Cc1nc(Cl)sc1C(C)n1c(=O)on(C(=O)N(c2ccc(Cl)cc2)C(C)C)c1=O (centres unmarked)', 0),
  ('CC(C)Cn1c(=O)on(C(=O)N(c2ccc(F)cc2)C(C)C)c1=O', 8);
